target-entity: ~100 representative kinases (Homo sapiens)
Construct: Recombinant protein kinase domains with a concentration of 2 μM
procedure-summary: DSF 100 kinase selectivity screen;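 also: compound tested at 20 µM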
Assay type: binding
measurement-context: protein MST4; average of three replicates
property-measured: dTm (K)

A = O=C(Nc1cccc(-c2c[nH]c3ncnc(N4CCOCC4)c23)c1)C1(C(=O)Nc2ccc(F)c(F)c2)CC1
B = O=C(Nc1cccc(-c2c[nH]c3ncnc(N4CCOCC4)c23)c1)C1(C(=O)Nc2cc(Br)c(F)cc2F)CC1
C = O=C(Nc1cccc(-c2c[nH]c3ncnc(N4CCOCC4)c23)c1)C1(C(=O)Nc2cccc3c2CCC3)CC1
D = Cc1ccc(NC(=O)C2(C(=O)Nc3cccc(-c4c[nH]c5ncnc(N6CCOCC6)c45)c3)CC2)cc1
Put the items above in order of decreasing dTm. Please respond with the labels ordered as the question requires.
A, D, B, C

1 = COc1ccc(NC(=O)C2(C(=O)Nc3cccc(-c4c[nH]c5ncnc(N6CCOCC6)c45)c3)CC2)cc1
2 = O=C(Nc1cccc(-c2c[nH]c3ncnc(N4CCOCC4)c23)c1)C1(C(=O)Nc2ccc(F)cc2F)CC1
Lab log: flag the item ( 1 or 2 ) with the smaller dTm figure. In your reply, give the label of the chosen option.
1

----------
target-entity: ~100 representative kinases (Homo sapiens, UniProt P49759)
Construct: Recombinant protein kinase domains with a concentration of 2 μM
Sequence (P49759 whole entry, the tested form may be a part): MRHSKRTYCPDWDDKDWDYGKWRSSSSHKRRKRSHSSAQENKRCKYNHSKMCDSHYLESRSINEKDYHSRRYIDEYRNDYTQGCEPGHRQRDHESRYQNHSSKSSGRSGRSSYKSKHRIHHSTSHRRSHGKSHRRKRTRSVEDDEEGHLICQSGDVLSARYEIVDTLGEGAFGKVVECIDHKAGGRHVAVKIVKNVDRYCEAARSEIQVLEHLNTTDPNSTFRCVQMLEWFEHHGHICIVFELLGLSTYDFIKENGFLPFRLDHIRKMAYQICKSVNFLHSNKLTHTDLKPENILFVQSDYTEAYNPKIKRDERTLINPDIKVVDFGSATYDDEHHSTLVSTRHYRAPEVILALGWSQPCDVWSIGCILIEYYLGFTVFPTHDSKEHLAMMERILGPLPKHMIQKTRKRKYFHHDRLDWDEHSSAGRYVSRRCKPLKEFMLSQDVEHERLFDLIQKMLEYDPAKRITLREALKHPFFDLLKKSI
procedure-summary: DSF 100 kinase selectivity screen;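 also: compound tested at 20 µM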
Type: binding
measurement-context: Protein CLK1; average of three replicates
property-measured: dTm (K)

Here are 8 molecules together with their reported answers.
>  <molecule>
COc1ccc(NC(=O)C2(C(=O)Nc3cccc(-c4c[nH]c5ncnc(N6CCOCC6)c45)c3)CC2)cc1

>  <target-entity>
~100 representative kinases (Homo sapiens, UniProt P49759)

>  <measured-value>
7.75

$$$$
>  <molecule>
CC(C)(C)c1cc(NC(=O)Nc2cccc(-c3c[nH]c4ncnc(N5CCOCC5)c34)c2)n(-c2ccc3ncccc3c2)n1

>  <target-entity>
~100 representative kinases (Homo sapiens, UniProt P49759)

>  <measured-value>
19.59

$$$$
>  <molecule>
O=C(Nc1ccccc1)C1(C(=O)Nc2cccc(-c3c[nH]c4ncnc(N5CCOCC5)c34)c2)CC1

>  <target-entity>
~100 representative kinases (Homo sapiens, UniProt P49759)

>  <measured-value>
9.52

$$$$
>  <molecule>
O=C(Nc1cccc(-c2c[nH]c3ncnc(N4CCOCC4)c23)c1)C1(C(=O)Nc2ccc(F)c(Br)c2)CC1

>  <target-entity>
~100 representative kinases (Homo sapiens, UniProt P49759)

>  <measured-value>
8.69

$$$$
>  <molecule>
COc1cc2c(Oc3ccc(NC(=O)C4(C(=O)Nc5ccc(F)cc5)CC4)cc3F)ccnc2cc1OCCCN1CCOCC1 [Foretinib, reference compound]

>  <target-entity>
~100 representative kinases (Homo sapiens, UniProt P49759)

>  <measured-value>
6.72

$$$$
>  <molecule>
O=C(Nc1ccc(F)cc1)C1(C(=O)Nc2cccc(-c3c[nH]c4ncnc(N5CCOCC5)c34)c2)CC1

>  <target-entity>
~100 representative kinases (Homo sapiens, UniProt P49759)

>  <measured-value>
9.06

$$$$
>  <molecule>
O=C(Nc1cccc(-c2c[nH]c3ncnc(N4CCOCC4)c23)c1)C1(C(=O)Nc2ccc(F)c(Cl)c2)CC1

>  <target-entity>
~100 representative kinases (Homo sapiens, UniProt P49759)

>  <measured-value>
9.40

$$$$
>  <molecule>
CCNc1nc(Nc2cc(F)c(C(=O)N3CCOCC3)cc2OC)ncc1C(F)(F)F

>  <target-entity>
~100 representative kinases (Homo sapiens, UniProt P49759)

>  <measured-value>
5.28

$$$$

P = O=C(Nc1cccc(-c2c[nH]c3ncnc(N4CCOCC4)c23)c1)C1(C(=O)Nc2ccc(F)c(F)c2)CC1
Q = Cc1cc(NC(=O)C2(C(=O)Nc3ccc(F)cc3)CC2)cc(-c2c[nH]c3ncnc(N4CCOCC4)c23)c1
Lab log: flag the item ( P or Q ) with the smaller dTm figure. In your reply, give the label of the chosen option.
Q

1 = CC(=O)N1CCN(c2nc(Cl)nc3[nH]cc(-c4cccc(NC(=O)Nc5cc(C(C)(C)C)nn5-c5ccc(C)cc5)c4)c23)CC1
2 = Cc1ccc(NC(=O)C2(C(=O)Nc3cccc(-c4c[nH]c5ncnc(N6CCOCC6)c45)c3)CC2)cc1
Lab log: flag the item ( 1 or 2 ) with the smaller dTm figure. In your reply, give the label of the chosen option.
2
(2: 6.84 K, 1: 10.57 K)

----------
target-entity: ~100 representative kinases (Homo sapiens)
Construct: Recombinant protein kinase domains with a concentration of 2 μM
procedure-summary: DSF 100 kinase selectivity screen;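 also: compound tested at 20 µM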
Type: binding
measurement-context: protein FLT1; average of three replicates
Experimental: Recombinant protein kinase domains with a concentration of 2 μM were mixed with a 20 μM compound solution in dimethyl sulfoxide (DMSO), 20 mM Hepes (pH 7.5), and 500 mM NaCl. SYPRO Orange (5000×, Invitrogen) was added as a fluorescence probe (1μl/ml). Subsequently, temperature-dependent protein unfolding profiles were measured using the QuantStudio 5 realtime PCR machine (Thermo Fisher Scientific, Waltham, MA, USA). […] The temperature was raised with a step rate of 3°C/min. […]
property-measured: dTm (K)

Here are 4 compounds together with their reported answers.
>  <compound>
O=C(Nc1cccc(-c2c[nH]c3ncnc(N4CCOCC4)c23)c1)C1(C(=O)Nc2ccc(F)c(F)c2)CC1 [Compound 17]

>  <target-entity>
~100 representative kinases (Homo sapiens)

>  <value-unit>
K

>  <dTm>
3.85

$$$$
>  <compound>
O=C(Nc1ccc(Cl)cc1)C1(C(=O)Nc2cccc(-c3c[nH]c4ncnc(N5CCOCC5)c34)c2)CC1 [Compound 13]

>  <target-entity>
~100 representative kinases (Homo sapiens)

>  <value-unit>
K

>  <dTm>
3.57

$$$$
>  <compound>
Cc1ccc(C(=O)Nc2ccc(CN3CCN(C)CC3)c(C(F)(F)F)c2)cc1C#Cc1cnc2cccnn12 [Ponatinib, reference compound]

>  <target-entity>
~100 representative kinases (Homo sapiens)

>  <value-unit>
K

>  <dTm>
18.52

$$$$
>  <compound>
CCc1ccc(NC(=O)C2(C(=O)Nc3cccc(-c4c[nH]c5ncnc(N6CCOCC6)c45)c3)CC2)cc1 [Compound 15]

>  <target-entity>
~100 representative kinases (Homo sapiens)

>  <value-unit>
K

>  <dTm>
0.00

$$$$

a = COc1cc(C(=O)N2CCOCC2)c(F)cc1Nc1nc(N(C)C)c2c(Cl)c[nH]c2n1 [Compound 36]
b = O=C(Nc1cc(F)cc(Br)c1)C1(C(=O)Nc2cccc(-c3c[nH]c4ncnc(N5CCOCC5)c34)c2)CC1 [Compound 27]
Lab note: record which item had the higher dTm, a or b . In your reply, give the label of the chosen option.
b

----------
target-entity: ~100 representative kinases (Homo sapiens)
Construct: Recombinant protein kinase domains with a concentration of 2 μM
procedure-summary: DSF 100 kinase selectivity screen;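 also: compound tested at 20 µM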
Format: binding
measurement-context: Protein EPHA5; average of three replicates
property-measured: dTm (K)

Here are 2 compounds together with their reported answers.
>  <compound>
Cc1ccc(C(=O)Nc2ccc(CN3CCN(C)CC3)c(C(F)(F)F)c2)cc1C#Cc1cnc2[nH]ncc2c1 [GZD-824, reference compound]

>  <value-unit>
K

>  <dTm>
14.58

$$$$
>  <compound>
Cn1cc(-c2c[nH]c3ncnc(N4CCOCC4)c23)cc1C#N

>  <value-unit>
K

>  <dTm>
-0.69

$$$$

A = CC(=O)N1CCN(c2nc(Cl)nc3[nH]cc(-c4cccc(NC(=O)Nc5cc(C(C)(C)C)nn5-c5ccc(C)cc5)c4)c23)CC1
B = Cc1cc(NC(=O)C2(C(=O)Nc3ccc(F)cc3)CC2)cc(-c2c[nH]c3ncnc(N4CCOCC4)c23)c1
Lab log: flag the item ( A or B ) with the smaller dTm figure. In your reply, give the label of the chosen option.
A

----------
target-entity: ~100 representative kinases (Homo sapiens, UniProt Q2M2I8)
Construct: Recombinant protein kinase domains with a concentration of 2 μM
Sequence (Q2M2I8 whole entry, the tested form may be a part): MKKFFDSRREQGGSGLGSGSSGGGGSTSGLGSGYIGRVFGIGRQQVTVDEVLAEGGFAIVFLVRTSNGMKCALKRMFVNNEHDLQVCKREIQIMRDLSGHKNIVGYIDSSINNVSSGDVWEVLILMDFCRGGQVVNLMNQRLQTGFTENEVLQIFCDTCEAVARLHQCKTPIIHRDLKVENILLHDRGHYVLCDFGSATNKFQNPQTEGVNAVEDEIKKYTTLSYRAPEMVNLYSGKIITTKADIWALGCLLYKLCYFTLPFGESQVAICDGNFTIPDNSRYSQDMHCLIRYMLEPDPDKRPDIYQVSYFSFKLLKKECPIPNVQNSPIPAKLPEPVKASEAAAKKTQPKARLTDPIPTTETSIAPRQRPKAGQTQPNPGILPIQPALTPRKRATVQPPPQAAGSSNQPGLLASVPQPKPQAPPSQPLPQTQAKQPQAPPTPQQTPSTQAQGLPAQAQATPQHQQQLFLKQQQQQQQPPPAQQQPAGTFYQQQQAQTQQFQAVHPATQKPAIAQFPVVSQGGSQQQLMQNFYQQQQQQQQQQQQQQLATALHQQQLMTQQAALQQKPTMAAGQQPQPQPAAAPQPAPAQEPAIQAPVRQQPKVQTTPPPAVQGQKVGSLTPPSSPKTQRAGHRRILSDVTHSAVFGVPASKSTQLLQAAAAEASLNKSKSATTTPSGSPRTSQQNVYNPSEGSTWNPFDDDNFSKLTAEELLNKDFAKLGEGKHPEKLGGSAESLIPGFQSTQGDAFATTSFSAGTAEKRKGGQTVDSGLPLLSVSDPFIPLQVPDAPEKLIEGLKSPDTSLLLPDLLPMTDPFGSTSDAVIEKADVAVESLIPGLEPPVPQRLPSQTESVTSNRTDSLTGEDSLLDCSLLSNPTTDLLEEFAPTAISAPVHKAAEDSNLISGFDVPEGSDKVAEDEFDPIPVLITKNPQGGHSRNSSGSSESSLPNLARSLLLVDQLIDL
procedure-summary: DSF 100 kinase selectivity screen;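 also: compound tested at 20 µM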
Format: binding
measurement-context: Protein AAK1; average of three replicates
property-measured: dTm (K)

Here are 5 compounds together with their reported answers.
>  <smiles-code>
O=C(Nc1cccc(-c2c[nH]c3ncnc(N4CCOCC4)c23)c1)C1(C(=O)Nc2ccc(F)c(F)c2)CC1

>  <measured-value>
3.45

$$$$
>  <smiles-code>
Cc1cc(NC(=O)C2(C(=O)Nc3ccc(F)cc3)CC2)cc(-c2c[nH]c3ncnc(N4CCOCC4)c23)c1

>  <measured-value>
0.52

$$$$
>  <smiles-code>
O=C(Nc1cccc(-c2c[nH]c3ncnc(N4CCOCC4)c23)c1)C1(C(=O)Nc2cc(Br)c(F)cc2F)CC1

>  <measured-value>
-2.54

$$$$
>  <smiles-code>
O=C(Nc1cccc(-c2c[nH]c3ncnc(N4CCOCC4)c23)c1)C1(C(=O)Nc2cccc3c2CCC3)CC1

>  <measured-value>
-0.63

$$$$
>  <smiles-code>
Cn1cc(-c2c[nH]c3ncnc(N4CCOCC4)c23)cc1C#N

>  <measured-value>
8.34

$$$$

1 = O=C(Nc1ccc(Cl)cc1)C1(C(=O)Nc2cccc(-c3c[nH]c4ncnc(N5CCOCC5)c34)c2)CC1
2 = O=C(Nc1cc(F)cc(Br)c1)C1(C(=O)Nc2cccc(-c3c[nH]c4ncnc(N5CCOCC5)c34)c2)CC1
Lab note: record which item had the higher dTm, 1 or 2 . In your reply, give the label of the chosen option.
1
